Numbers sourced from PubChem BioAssay AID1259407.

Test system: CCRIS mutagenicity, Ames/micronucleus/aberration tests
Assay: CCRIS mutagenicity studies
Settings: Test System: AMES SALMONELLA TYPHIMURIUM; Strain/Indicator: TA98; Metabolic Activation: NONE; Method: STANDARD PLATE
Calls of active or inactive are those of the source. No rule for the calls is given here.
The reply should be one of these categories: active, inactive

Cn1c2ccccc2c(=O)c2c(O)cc3c(c21)CC(C1(C)CO1)O3 (configuration not stated)	active

stdin: Look up the recorded call for CC[C@@]1(O)C[C@H](O[C@H]2C[C@H](N(C)C)[C@H](O[C@H]3C[C@H](O)[C@H](O[C@H]4C[C@H](O)[C@H](O)[C@H](C)O4)[C@H](C)O3)[C@H](C)O2)c2c(cc3c(c2O)C(=O)c2c(O)ccc(O)c2C3=O)[C@H]1C(=O)OC in this test.
stdout: inactive

stdin: Recorded test call requested for O=[N+]([O-])c1ccc2cccc3c2c1C=C3
stdout: active

stdin: In this assay, the call recorded for O=P1(N(CCCl)CCCl)NCCCO1 (configuration not stated) was what?
stdout: inactive

stdin: Hi, do you know how FC(F)(F)c1cccc(Cl)c1 came out in this test?
stdout: inactive

stdin: How was Fc1c(F)c(F)c(Cl)c(F)c1F classified in this test?
stdout: inactive

stdin: Tell me the assay call for Nc1n[nH]c(=S)s1 please.
stdout: inactive
